Provenance of the data: ChEMBL document CHEMBL3507680

- testName: Human HepG2 cell viability assay in 384 well format
- Format: toxicity, cell-based
- Design: dose 125 nL, time 70.5 hour; concentration not given beside the values
- setupConditions: HepG2 cells, read-out: Inhibition
valueType: cytotoxicity at 70.5 h
State the result as a value with its unit after it.

Past entries and their recorded results:
CCc1nc(C)c([C@H]2CN(C)C[C@@H]2C(=O)NCc2ccccc2OC)[nH]1 = -2.21%
CC(C)N(Cc1ccc(Cl)c(Cl)c1)C(=O)CCn1cncn1 = -2.22%
Cc1noc([C@@H]2CCO[C@@H]3CCN(C(=O)Cc4ccsc4)C[C@@H]32)n1 = 11.3%
O=C(NCC(O)c1ccc(F)c(F)c1)c1cccnc1OCC(F)(F)F (configuration not stated) = -8.69%
CNS(=O)(=O)c1ccc(C(=O)N2CCCC2c2ccccc2)o1 (configuration not stated) = -14.1%
COc1cc2nc(NCc3scnc3C)nc(N)c2cc1OC = 8.57%
O=C1CN(CC2CC2)Cc2nc(NCc3ccccc3)sc21 = 20.7%
O=C(Cc1ccsc1)N1CCC[C@@H]1Cn1c(=O)oc2ccccc21 = -5.78%
CC1CCc2nc(O)c(C(=O)NCCc3cccs3)cc2C1 (configuration not stated) = -7.76%
N#CCCN(CC1CC1)S(=O)(=O)c1cccc(Cl)c1 = -3.31%

Prompt: // lookup cytotoxicity at 70.5 h for COc1cccc(CCNC(=O)CN2CCN(C)CC2C)c1 (configuration not stated)
Completion: -17.1%

Prompt: Repeat for the following molecule: CCN(C)CC1CCN(C(=O)NCCC2Cc3ccccc3C2)C1 (configuration not stated)
Completion: -6.72%

Prompt: Repeat for the following molecule: CCN(CC)c1ncnc2c1CCN(C(=O)Cc1ccccn1)CC2
Completion: -1.31%

Prompt: Repeat for the following molecule: N#CC1CCCN(C(=O)Cn2ncc(N3CCCC3)cc2=O)C1 (configuration not stated)
Completion: -7.57%

Prompt: Repeat for the following molecule: Cn1cc(CN2CC[C@@H]3[C@@H]2CCN3C(=O)Cc2cccc(F)c2)cn1
Completion: -4.59%

Prompt: Repeat for the following molecule: O=C(c1ccc[nH]1)N1C[C@H]2CC[C@@H]1CN(C1Cc3ccccc3C1)C2
Completion: -9.66%

Prompt: Repeat for the following molecule: CC(C)CCn1cc(C(C(=O)O)N2CCCN(C3CCCC3)CC2)cn1 (configuration not stated)
Completion: -9.63%

Prompt: Repeat for the following molecule: CCc1nn(C)c(Cl)c1CN1CCCC2(CC1)CN(C)C(=O)O2 (configuration not stated)
Completion: -14.9%

Prompt: Repeat for the following molecule: CN(CC(N)=O)Cc1ccc(F)cc1Cl
Completion: -5.08%
